MEASUREMENT_CONDITIONS: 337.16 K; 101.33 kPa; Liquid; Pulse-echo method
OUTCOME_MEASURE: speed of sound (m/s)

Task item: What value of speed of sound has been recorded for this entry: CC(C)C(=O)[O-].C[NH2+]CCO [2-hydroxy-N-methylethanaminium isobutyrate]
Reply: 1500.4

Task item: Continue with CCCC(=O)[O-].C[NH2+]CCO [N-methyl-2-hydroxyethylammonium butanoate]
Reply: 1492.3

Task item: Continue with C[NH2+]CCO.O=C[O-] [2-hydroxy-N-methylethanaminium formate]
Reply: 1740.2

Task item: Continue with CCC(=O)[O-].C[NH2+]CCO [2-hydroxy-N-methylethanaminium propionate]
Reply: 1573.7

Task item: Continue with CCCCC(=O)[O-].C[NH2+]CCO [2-hydroxy-N-methylethanaminium pentanoate]
Reply: 1428.6
